Reported endpoint: melting point

{"Structure": "COc1ccccc1NC(=O)Nc1nc(Nc2ccc3ccccc3c2)nc(N(CCC(=O)O)Cc2ccc(Cl)c(Cl)c2)n1", "melting point": "115 to 120 °C"}
{"Structure": "O=c1[nH]c(-c2cc(C(F)(F)F)cc(C(F)(F)F)c2)nn1-c1cc(Cl)ccc1O", "melting point": "235 to 236 °C"}
{"Structure": "CC(C)(C)c1cc(SC#N)cc(C(C)(C)C)c1O", "melting point": "61.5 to 63 °C"}

Here's the next entry for you.
Asked: Fill in reported melting point for this entry: N=c1[nH]c2ccc(Cl)cc2c2ncnn12
Given back: 279 to 280 °C
